Assay: chemical genetic growth profiling, strain panel (AID 1159580);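 also: tested at 20 µM; growth read once vehicle control cultures reached saturation at 30 °C; 1 = growth at the plate median or of vehicle wells; lower values mean less growth of the strain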
Conditions: S. cerevisiae deletion strains, growth OD, locus YER111C, strain swi4, hits give low values
About 2,000 (36%) of roughly 5,500 compounds were called active. Another 18% or so got no clear call; they are omitted. The list shows a part of the results.
Reported Property: normalized growth

N[C@@H](CCC(=O)N[C@@H](CCSC(CC(=O)O)C(=O)O)C(=O)NCC(=O)O)C(=O)O (stereo partly drawn) = 0.998
CC1(C)CC2C1CCC1(C)OC2(C)CCC1O (stereo not drawn) = 1.02
COc1ccc2c(c1O)-c1c(OC)c(OC)cc3c1[C@H](C2)N(C)CC3 = 0.995
CC12CCCC(O)(C1)C1CC(C)(C)C1CC2 (stereo not drawn) = 1
OC1CCCCC1N1CCC(c2ccccc2)CC1 (stereo not drawn) = 0.978
COC(=O)[C@H]1[C@H]2C[C@@H]3c4[nH]c5cc(OC)ccc5c4CCN3C[C@H]2C[C@@H](OC(=O)c2cc(OC)c(OC)c(OC)c2)[C@@H]1OC = 0.996
CCOC(N)=O = 0.995
C[C@@H]1CC2C3CCC4=CC(=O)C=C[C@]4(C)[C@@]3(F)[C@@H](O)C[C@]2(C)[C@@]1(O)C(=O)COP(=O)(O)O (stereo partly drawn) = 0.98
O=C(NC(=O)c1c(F)cccc1F)Nc1cc(Cl)c(OC(F)(F)C(F)C(F)(F)F)cc1Cl (stereo not drawn) = 0.982
COc1cc2c(cc1O)CC1c3c(cc(O)c(OC)c3-2)CCN1C (stereo not drawn) = 1.01
c1ccc2[nH]c(-c3cscn3)nc2c1 = 1.01
COP(=S)(OC)Oc1ccc(SC)c(C)c1 = 1.01
CC[C@]1(O)CC2CN(CCc3c([nH]c4ccccc34)[C@@](C(=O)OC)(c3cc4c(cc3OC)N(C=O)[C@H]3[C@@](O)(C(=O)OC)[C@H](OC(C)=O)[C@]5(CC)C=CCN6CC[C@]43[C@@H]65)C2)C1 (stereo partly drawn) = 0.989

---

The compounds listed here are annotated with their normalized growth.
Test: chemical genetic growth profiling, strain panel (AID 1159580)
Details: S. cerevisiae deletion strains, growth OD, locus YMR125W, strain sto1, hits give low values
In all, about 5,500 compounds went through this assay and about 2,000 (36%) were called active. About 18% were inconclusive and are not listed. Some of the results follow.
Reported Property: normalized growth

O=c1cccc2n1C[C@H]1CNCC2C1 = 0.992
C[C@](N)(Cc1ccc(O)cc1)C(=O)O = 0.995
OC/C=C/c1ccc(O)c(O)c1 = 0.995
CC(Cc1ccc(O)c(O)c1)(NN)C(=O)O (centres undefined) = 1

---

Some molecules, each annotated with its measured normalized growth.
Assay: chemical genetic growth profiling, strain panel (AID 1159580)
Settings: S. cerevisiae deletion strains, growth OD, locus YLL041C, strain sdh2, hits give low values
Out of some 5,500 compounds screened, about 2,000 (36%) were called active. Roughly 18% stayed inconclusive and do not appear here. This is one part of the list.
Reported Property: normalized growth

NC(=O)c1ccc(N)nc1 = 1
S=c1[nH]c2ccccc2s1 = 0.98
CC1(C)O[C@@H]2CC3C4CCC5=CC(=O)C=C[C@]5(C)C4[C@@H](O)C[C@]3(C)[C@]2(C(=O)CO)O1 (stereo not given in full) = 1
O=C(O)c1cc(=O)c(O)c2c(O)c(O)c(O)cc2c1 = 0.897
Cc1ccc(C(C)C)cc2c(C)ccc1-2 = 1.01

---

Assay: chemical genetic growth profiling, strain panel (AID 1159580);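 also: tested at 20 µM; growth read once vehicle control cultures reached saturation at 30 °C; 1 = growth at the plate median or of vehicle wells; lower values mean less growth of the strain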
Details: S. cerevisiae deletion strains, growth OD, locus YNL322C, strain KRE1, hits give low values
The whole screen tested about 5,500 compounds, of which about 2,000 (36%) were called active. Another 18% or so got no clear call; they are omitted. The list shows a part of the results.
Reported Property: normalized growth

CC[C@@H]1[C@@H](O)N2C3C[C@H]1C1C(O)[C@]4(C[C@@H]12)c1ccccc1N(C)[C@@H]34 (stereo partly specified) = 0.998
c1cc2c(cc1[C@H]1OC[C@H]3[C@@H]1CO[C@H]3c1ccc3c(c1)OCO3)OCO2 = 0.94
N/C(=N\OC(=O)c1ccno1)c1ccc(C(F)(F)F)cc1 = 0.987
CCOC(=O)c1c(C)csc1N = 0.993
CCOC(=O)C1=C[C@]2(CC)CCCN3CCc4c(n1c1ccccc41)[C@@H]32 = 0.986
O=C(O)P(=O)(O)O = 0.974
COc1ccccc1-c1cc(=O)c2c(OC)cccc2o1 = 0.978
NCCCC(N)(C(=O)O)C(F)F (stereo unspecified) = 0.986
CCOC(N)=O = 1
CCOc1ccc2c(c1)C(C)=CC(C)(C)N2 = 0.993
COc1ccc(OC)c(S(=O)(=O)NCc2c(F)cccc2Cl)c1 = 1.01
O=C(CC(Nc1ccccc1)c1ccccc1)C1CC1 (stereo unspecified) = 0.982
O=C(O)CCNC(=S)Nc1cccc(C(F)(F)F)c1 = 1.01
C/C(=N/OC(=O)c1ccc(Cl)cc1)c1ccc(F)cc1 = 0.975
COc1ccc(CN(Cc2ccc(OC)cc2)C(=O)c2cccs2)cc1 = 0.994
N=C(N)SCCc1cccc(CCSC(=N)N)c1 = 0.975
O=C(CCCCCCCCC(=O)c1ccccc1)c1ccccc1 = 1
ON(Cc1c(F)cccc1Cl)Cc1c(F)cccc1Cl = 0.987
O=C(O)c1cc(=O)c(O)c2c(O)c(O)ccc2c1 = 1.01
CCNS(=O)(=O)c1cc(Cl)sc1Cl = 0.992
Oc1cc(O)cc(/C=C/c2ccc(O)c(O)c2)c1 = 0.989
CC1(C)CCC(C(C)(C)O)CC1 = 0.994
CCCSP(=O)(OCC)SCCC = 1.01
CCCn1c(=O)c2[nH]c(-c3ccc(OCC(=O)NCCN)cc3)nc2n(CCC)c1=O = 0.95
CCOC(=O)c1c(C)n(-c2ccccc2)c2ccc(O)cc12 = 0.998
O=C(O)c1cc(=O)c2c(OCC(O)COc3cccc4oc(C(=O)O)cc(=O)c34)cccc2o1 = 1.01
COCCCCC(=NOCCN)c1ccc(C(F)(F)F)cc1 = 0.988
Fc1cccc(Cl)c1Cn1nnc(N2CCCCC2)n1 = 0.961
CC[C@@]1(C2O[C@@H](C3O[C@@](O)(CC)[C@H](C)C[C@@H]3C)C[C@@H]2C)CC[C@H]([C@]2(C)CCC3(C[C@H](O)[C@@H](C)[C@@H]([C@H](C)[C@@H](OC)[C@H](C)C(=O)O)O3)O2)O1 (stereo partly specified) = 0.99
CCOC(=O)c1c(-c2ccc(F)cc2)csc1N = 0.95
CCOC(=O)c1cc(-c2ccc(N)cc2)oc1C = 0.973

---

Test: chemical genetic growth profiling, strain panel (AID 1159580);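 also: tested at 20 µM; growth read once vehicle control cultures reached saturation at 30 °C; 1 = growth at the plate median or of vehicle wells; lower values mean less growth of the strain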
Conditions: S. cerevisiae deletion strains, growth OD, locus YBR279W, strain paf1
Screen size: about 5,500 compounds; about 2,000 (36%) were called active. Another 18% or so got no clear call; they are omitted. No stated cut-off is given here; in the data, active means normalized growth mostly below about 0.91 (no sharp cut-off); inconclusive means no clear call, values can overlap the other calls; inactive means mostly above about 0.92. The list shows a part of the results.
Outcome codes: active, inactive

NCCCCN=C(N)N = inactive
CC1=CC(=O)CC(C)(C)C1(O)/C=C/C(C)=C\C(=O)O (stereo unspecified) = inactive
COc1ccc(C=CC(=O)c2ccc(O)cc2O)cc1OC = active
O=C(O)c1cc(=O)c(O)c2c(O)c(O)c(O)cc2c1 = active
CCCc1cc(OC)c2c(c1)OCO2 = inactive
CC1(C)O[C@@H]2CC3C4CCC5=CC(=O)C=C[C@]5(C)C4[C@@H](O)C[C@]3(C)[C@]2(C(=O)CO)O1 (stereo partly specified) = inactive

---

# reported normalized growth; entries follow
Experiment: chemical genetic growth profiling, strain panel (AID 1159580);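 also: tested at 20 µM; growth read once vehicle control cultures reached saturation at 30 °C; 1 = growth at the plate median or of vehicle wells; lower values mean less growth of the strain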
Conditions: S. cerevisiae deletion strains, growth OD, locus YBR023C, strain chs3, hits give low values
The campaign covered roughly 5,500 compounds. About 2,000 (36%) were called active. Roughly 18% stayed inconclusive and do not appear here. The list shows a part of the results.
Reported Property: normalized growth

c1ccc2[nH]c(-c3cscn3)nc2c1 = 0.993
CCOC(=O)CCCCCCCCCCCCC1C=CCC1 (stereo not given) = 0.979
NC(=O)c1ccc(N)nc1 = 0.995
C[C@]12CCC3c4ccc(OS(=O)(=O)O)cc4CCC3C1CCC2=O (stereo not given in full) = 0.987
COP(=S)(OC)Oc1ccc(SC)c(C)c1 = 0.973
CS(=O)(=O)OCCCCOS(C)(=O)=O = 1.01
CC12CCC(CC1)C(C)(C)O2 = 0.974
CC[C@]12CCCN3CCc4c(n(c5ccccc45)[C@](O)(C(=O)OC)C1)[C@@H]32 = 0.991
CC[C@]12CCCN3CCc4c(n(c5ccccc45)C(=O)C1)[C@@H]32 = 1
CCCN(CCC)C(=O)C(CCC(=O)O)NC(=O)c1ccccc1 (stereo not given) = 0.992
O=C(O)CCC(=O)c1ccc(-c2ccccc2)cc1 = 0.983
Nc1nc2ncc(CNc3ccc(C(=O)N[C@@H](CCC(=O)O)C(=O)O)cc3)nc2c(=O)[nH]1 = 0.995
COc1cc(/C=C/C(=O)O)ccc1O = 1.01
COS(C)(=O)=O = 0.994
Cc1ccc(C(C)C)cc2c(C)ccc1-2 = 1
